# pIC50 annotations
Biological target: Recombinant human IDO (Homo sapiens)
Sequence (P14902 whole entry): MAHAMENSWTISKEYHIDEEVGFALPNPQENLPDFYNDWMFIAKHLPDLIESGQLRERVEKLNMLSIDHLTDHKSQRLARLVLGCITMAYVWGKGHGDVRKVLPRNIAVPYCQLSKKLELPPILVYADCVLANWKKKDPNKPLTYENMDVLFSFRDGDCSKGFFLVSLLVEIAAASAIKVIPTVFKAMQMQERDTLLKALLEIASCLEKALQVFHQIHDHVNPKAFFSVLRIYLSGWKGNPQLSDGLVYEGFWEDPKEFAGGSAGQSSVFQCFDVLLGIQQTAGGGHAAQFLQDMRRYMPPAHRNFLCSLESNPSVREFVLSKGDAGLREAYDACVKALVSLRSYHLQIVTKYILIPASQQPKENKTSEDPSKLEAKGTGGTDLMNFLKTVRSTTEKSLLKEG
Experiment: Bridge-IT tryptophan fluorescence assay of human IDO-1 inhibition
Details: recombinant human IDO 7.5 nM, L-tryptophan
pIC50: −log10 of the molar value.

Example molecules with recorded pIC50:
{"Molecule": "Fc1cccc2c1C(CCC1(F)CCCCC1)n1cncc1-2 (single isomer, unassigned) [Compound 19a]", "pIC50": "< 6.00"}
{"Molecule": "FC1(CCC2c3c(Cl)cccc3-c3cncn32)CCOCC1 (single isomer, unassigned) [Compound 96a]", "pIC50": "< 6.00"}

Prompt: Can you look up pIC50 on Recombinant human IDO (Homo sapiens) for OC(CC1c2ncccc2-c2cncn21)C1CCC(F)(F)CC1 (single isomer, unassigned) [Compound 22a] ?
Response: 6.00 to 7.00

Prompt: NC(=O)CC1CCC(F)(CCC2c3ccccc3-c3cncn32)CC1 (single isomer, unassigned) [Compound 112a] , same question.
Response: < 6.00

Prompt: Same question for COc1ccc2c(n1)C(CC(N)C1CCCCC1)n1cncc1-2 (mixture of isomers) [Compound 118a] please.
Response: < 6.00

Prompt: Queued: O=C(C1CCC(F)(CCC2c3ncccc3-c3cncn32)CC1)N1CCCCC1 (mixture of isomers) [Compound 100b]
Response: < 6.00

Prompt: Now the molecule FC1(CCC2c3cnccc3-c3cncn32)CCCCC1 (single isomer, unassigned) [Compound 10a]
Response: < 6.00

Prompt: Lookup OC(CC1c2ncccc2-c2cncn21)C1(F)CCC(F)(F)CC1 (single isomer, unassigned) [Compound 87a]
Response: < 6.00

Prompt: OC1(C2CCC(F)(CCC3c4c(Cl)cccc4-c4cncn43)CC2)CC1 (centres unmarked) [Compound 106b] ?
Response: 6.00 to 7.00

Prompt: Now try FC1(CCC2c3ncccc3-c3cncn32)CCC2(CC1)CC2 (single isomer, unassigned) [Compound 30b] .
Response: < 6.00

Prompt: What do you get for OC(CC1c2nc(C3CC3)ccc2-c2cncn21)C1CCCCC1 (centres unmarked) [Compound 56a] ?
Response: > 7.00

Prompt: Next up: CN(C)C(=O)C1CCC(F)(CCC2c3c(Cl)cccc3-c3cncn32)CC1 (single isomer, unassigned) [Compound 114b]
Response: > 7.00

Prompt: Okay, and COc1ccc(F)c2c1-c1cncn1C2CCC1(F)CCCCC1 (single isomer, unassigned) [Compound 45a] ?
Response: < 6.00

Prompt: Cool, now OC(CC1c2nc(OC3CC3)ccc2-c2cncn21)C1CCC(F)(F)CC1 (single isomer, unassigned) [Compound 69c]
Response: < 6.00
